Measured values drawn from paper PMC12714728 for this set.

# Assay Remarks: In vitro cell permeability assay
# Protocol Conditions: LLC-PK1, Papp BA, LLC-Parent, basolateral to apical, + 5 µM GF120918
Observed Property: Papp B→A (nm/s)
Please state the figure in nm/s; there is no need to write the unit.

Data request, read-out Papp B→A, for `CSCC[C@@H]1NC(=O)CNC(=O)CNC(=O)[C@H](C)NC(=O)[C@H](C(C)C)NC(=O)CNC(=O)[C@H](CC(C)C)NC(=O)[C@@H]2CCCN2C(=O)[C@H](CC(=O)O)NC(=O)[C@H](CCC(=O)O)NC(=O)[C@H](Cc2ccc(O)cc2)NC(=O)[C@H](CC(C)C)NC(=O)[C@H](CO)NC(=O)[C@H](C(C)C)NC(=O)[C@H]2CCCN2C(=O)[C@@H]2CCCN2C(=O)[C@H](Cc2ccc(O)cc2)NC(=O)[C@H](C(C)C)NC(=O)CNC1=O` 2.2
